Here the recorded IC50 is given for each entry.
- TARGET SYSTEM: Epidermal growth factor receptor (Homo sapiens, UniProt P00533)
- Sequence (P00533 whole entry): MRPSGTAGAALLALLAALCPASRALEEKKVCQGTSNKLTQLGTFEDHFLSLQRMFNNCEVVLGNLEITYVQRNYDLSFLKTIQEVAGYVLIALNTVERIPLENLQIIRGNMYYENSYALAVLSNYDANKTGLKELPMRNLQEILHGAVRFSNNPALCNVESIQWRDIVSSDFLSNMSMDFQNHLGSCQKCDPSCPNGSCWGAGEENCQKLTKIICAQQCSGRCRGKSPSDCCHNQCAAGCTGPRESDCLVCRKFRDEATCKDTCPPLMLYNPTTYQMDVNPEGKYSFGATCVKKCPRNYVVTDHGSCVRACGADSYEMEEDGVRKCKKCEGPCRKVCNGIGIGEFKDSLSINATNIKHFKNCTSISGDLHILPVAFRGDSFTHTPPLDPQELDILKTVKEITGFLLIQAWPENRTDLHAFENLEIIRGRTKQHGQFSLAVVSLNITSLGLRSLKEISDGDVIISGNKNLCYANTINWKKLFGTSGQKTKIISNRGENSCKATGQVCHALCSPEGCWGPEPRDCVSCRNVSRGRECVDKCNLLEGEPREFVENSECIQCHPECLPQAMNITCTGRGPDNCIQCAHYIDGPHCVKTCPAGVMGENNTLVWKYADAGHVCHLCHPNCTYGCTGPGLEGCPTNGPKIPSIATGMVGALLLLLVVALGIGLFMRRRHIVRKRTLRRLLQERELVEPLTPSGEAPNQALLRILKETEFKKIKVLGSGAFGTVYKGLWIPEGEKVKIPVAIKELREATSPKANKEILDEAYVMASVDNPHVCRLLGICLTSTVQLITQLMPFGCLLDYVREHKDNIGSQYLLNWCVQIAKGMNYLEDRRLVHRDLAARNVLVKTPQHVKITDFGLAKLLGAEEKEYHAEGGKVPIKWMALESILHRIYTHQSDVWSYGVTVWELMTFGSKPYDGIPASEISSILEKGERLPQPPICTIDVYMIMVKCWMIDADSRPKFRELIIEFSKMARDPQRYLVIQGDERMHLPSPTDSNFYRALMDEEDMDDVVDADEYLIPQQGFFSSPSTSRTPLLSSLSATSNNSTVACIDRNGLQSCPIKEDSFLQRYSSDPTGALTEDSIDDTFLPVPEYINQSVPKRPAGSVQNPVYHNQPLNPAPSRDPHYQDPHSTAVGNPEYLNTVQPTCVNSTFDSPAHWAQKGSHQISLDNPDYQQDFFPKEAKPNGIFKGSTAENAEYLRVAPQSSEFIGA
- ASSAY COMMENT: Inhibition of polyGAT phosphorylation

MOL | UNIT NAME | INEQUALITY SYMBOL | IC50
N#C/C(=C\c1ccc(O)c(O)c1)C(=O)NCCc1ccccc1 | µM | = | 0.93
N#C/C(=C\c1ccc(O)c(O)c1)C(=O)c1ccc(F)cc1 | µM | = | 0.56
Cc1cc(C)c(C(=O)/C(C#N)=C/c2ccc(O)c(O)c2)c(C)c1 | µM | = | 10.7
N#C/C(=C\c1ccc(O)c(O)c1)C(=O)N1CCCCC1 | µM | > | 1000
